# Test system: HCT116
# Experiment: CellTiter-Blue cell viability assay, HCT116
# Type: cell-based, human
# Stated Conditions: Homo sapiens, HCT-116, 48 h, 50% cell viability vs untreated, mean of triplicates
pIC50: −log10 of the molar value.
Assay Metric: pIC50

>  <Compound>
CC1=N/C(=C\c2ccc(C)o2)C(=O)N1c1ccc(CC(=O)NCc2ccccc2)cc1 [Compound (Id)]

>  <Measured Value>
5.84

$$$$

###

# Experiment: Stability in human liver microsomes
# Assay type: in vitro ADME
# Stated Conditions: human, liver microsomes, human liver microsomes, in presence of NADPH, 37° C.; read-out: Stability HLM t1/2

>  <Smiles Notation>
CC1=N/C(=C\c2ccc(C)o2)C(=O)N1c1ccc(CC(=O)NCc2ccccc2)cc1

>  <half-life [min]>
30

$$$$

###

# Experiment: Binding to mouse plasma proteins (equilibrium dialysis)
# Type: in vitro ADME
# Stated Conditions: CD-1, mouse, plasma, pH 7.4, equilibrium dialysis 22 h, read-out: Mouse PPB (% free)

>  <Smiles Notation>
CC1=N/C(=C\c2ccc(C)o2)C(=O)N1c1ccc(CC(=O)NCc2ccccc2)cc1

>  <fraction unbound at 22 h, 10 μM>
0.032

$$$$

###

# Experiment: Maximum kinetic aqueous solubility
# Format: physicochemical
# Stated Conditions: phosphate buffer with 2% DMSO, aqueous buffer, kinetic from dmso stock, 2% DMSO/PBS, pH 7.4, read-out: Max. aq. Sol.

>  <Compound>
CC1=N/C(=C\c2ccc(C)o2)C(=O)N1c1ccc(CC(=O)NCc2ccccc2)cc1 [Compound (Id)]

>  <Unit Symbol>
µM

>  <solubility kinetic at 90 min>
79.8

$$$$

###

# Measurement Target: CYP2D6 (Homo sapiens, UniProt P10635)
# Construct: purchased Fisher Scientific, Waltham, MA; host or cells: insect cells (supersomes)
# Sequence (P10635 whole entry): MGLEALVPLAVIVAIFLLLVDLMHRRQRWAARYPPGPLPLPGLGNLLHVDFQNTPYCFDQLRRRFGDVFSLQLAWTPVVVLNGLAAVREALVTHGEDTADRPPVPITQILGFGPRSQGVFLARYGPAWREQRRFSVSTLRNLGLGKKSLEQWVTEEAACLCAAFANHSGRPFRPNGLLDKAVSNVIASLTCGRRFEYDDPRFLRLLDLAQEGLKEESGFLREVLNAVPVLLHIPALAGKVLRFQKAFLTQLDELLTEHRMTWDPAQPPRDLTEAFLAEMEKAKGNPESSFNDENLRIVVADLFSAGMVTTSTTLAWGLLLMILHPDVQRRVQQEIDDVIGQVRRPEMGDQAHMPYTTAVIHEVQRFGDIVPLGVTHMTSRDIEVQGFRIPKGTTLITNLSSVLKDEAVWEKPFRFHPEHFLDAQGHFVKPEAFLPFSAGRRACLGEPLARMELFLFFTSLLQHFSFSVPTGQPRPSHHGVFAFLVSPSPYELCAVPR
# Experiment: CYP450 2D6 inhibition
# Assay type: in vitro ADME
# Stated Conditions: recombinant CYP2D6 expressed in insect supersomes, probe 3-[2-(N,N-diethylamino)ethyl]-7-methoxy-4-methylcoumarin, expressed enzyme, fluorescent substrate
pIC50: −log10 of the molar value.

>  <Smiles Notation>
CC1=N/C(=C\c2ccc(C)o2)C(=O)N1c1ccc(CC(=O)NCc2ccccc2)cc1

>  <pIC50>
< 5.00

$$$$

Cited source: patent US20250282764A1
